- Tested on: PD-1/PD-L1 (Homo sapiens (Human))
- Measurement protocol: PD-1/PD-L1 Homogenous Time-Resolved Fluorescence (HTRF) binding assay
- Run parameters: PD-1-Ig (20 nM final)/PD-L1-His (10 nM final) binding assay
- Source text: The ability of the compounds of the invention to bind to PD-L1 was investigated using a PD-1/PD-L1 Homogenous Time-Resolved Fluorescence (HTRF) binding assay. The interaction of PD-1 and PD-L1 can be assessed using soluble, purified preparations of the extracellular domains of the two proteins. […] Homogenous Time-Resolved Fluorescence (HTRF) Assays of Binding of Soluble PD-1 to Soluble PD-L1. […]
Measure name: IC50 (nM)

[1] Cc1c(COc2cc(OCCN3CC[C@@H](O)C3)c(CN[C@](C)(CO)C(=O)O)cc2Cl)cccc1-c1ccc2c(c1)OCCO2
[2] Cc1c(COc2cc(OCC3CCCN(C)C3)c(CN[C@@](C)(CO)C(=O)O)cc2Cl)cccc1-c1ccc2c(c1)OCCO2 (stereo partly shown)
[3] Cc1c(COc2cc(OC[C@H](C)CO)c(CNC(C)(CO)CO)cc2Cl)cccc1-c1ccc2c(c1)OCCO2
[4] Cc1c(COc2cc(OCC3CCC3)c(CNC(C)(CO)CO)cc2Cl)cccc1-c1ccc2c(c1)OCCO2
Consider the compounds listed above. Rank them by IC50 in ascending numerical order. // rank by listing labels in the order requested 1, 3, 2, 4

###

- Tested on: PD-1/PD-L1 (Homo sapiens (Human), UniProt Q9NZQ7)
- Sequence (Q9NZQ7 18-239): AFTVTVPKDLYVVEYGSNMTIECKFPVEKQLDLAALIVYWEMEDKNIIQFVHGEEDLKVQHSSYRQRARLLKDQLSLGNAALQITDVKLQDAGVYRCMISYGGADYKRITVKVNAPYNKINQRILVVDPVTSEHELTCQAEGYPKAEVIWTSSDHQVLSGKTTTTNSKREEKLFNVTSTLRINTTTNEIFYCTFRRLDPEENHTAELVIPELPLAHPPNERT
- Measurement protocol: PD-1/PD-L1 Homogenous Time-Resolved Fluorescence (HTRF) binding assay
- Run parameters: PD-1-Ig (20 nM final)/PD-L1-His (10 nM final) binding assay
pIC50: −log10 of the molar value.
Measure name: pIC50

Examples from the recorded data:
• Cc1c(COc2cc(OCCN3CC[C@@H](O)C3)c(CN3CCCC[C@H]3C(=O)O)cc2Cl)cccc1-c1ccc2c(c1)OCCO2 = 8.34
• Cc1c(COc2cc(OCc3cncc(C(=O)NCCC(=O)O)c3)c(CN3CC[C@H](O)C3)cc2Cl)cccc1-c1ccc2c(c1)OCCO2 = 8.28
• Cc1c(COc2cc(OCC3CCCN(C)C3)c(CN[C@@H](CO)C(=O)O)cc2Cl)cccc1-c1ccc2c(c1)OCCO2 (stereo partly drawn) [Example 2004] = 8.24
• Cc1c(COc2cc(OCC3CCOCC3)c(CNC(C)(CO)CO)cc2Cl)cccc1-c1ccc2c(c1)OCCO2 = 8.27

[I] CCn1cc(COc2cc(OCc3cccc(-c4ccc5c(c4)OCCO5)c3C)c(Cl)cc2CN[C@@](C)(CO)C(=O)O)cn1
[II] Cc1c(COc2cc(OCc3cncc(S(=O)(=O)NCCC(=O)O)c3)c(CN[C@@](C)(CO)C(=O)O)cc2Cl)cccc1-c1ccc2c(c1)OCCO2
Compare pIC50: is it lower for I or for II ? Please respond with the label that marks your chosen entry. I

###

- Tested on: PD-1/PD-L1 (Homo sapiens (Human), UniProt Q9NZQ7)
- Measurement protocol: PD-1/PD-L1 Homogenous Time-Resolved Fluorescence (HTRF) binding assay
- Run parameters: PD-1-Ig (20 nM final)/PD-L1-His (10 nM final) binding assay
pIC50: −log10 of the molar value.
Measure name: pIC50

* Cc1c(COc2cc(OCCN3CCCC(O)(C(F)(F)F)C3)c(CN3CCCC[C@H]3C(=O)O)cc2Cl)cccc1-c1ccc2c(c1)OCCO2 (stereo partly drawn) | 7.66

[1] COC(=O)C1(O)CCN(CCOc2cc(OCc3cccc(-c4ccc5c(c4)OCCO5)c3C)c(Cl)cc2CN[C@](C)(CO)C(=O)O)CC1
[2] Cc1c(COc2cc(OCCN3CCCCC3)c(CN[C@](C)(CO)C(=O)O)cc2Cl)cccc1-c1ccc2c(c1)OCCO2
# returns the entry with the larger pIC50; inputs 1 and 2 Please respond with the label that marks your chosen entry. 2

These measurements were taken from patent US20250230153A1.
